Target: T1, RNF-MD complex (strep-SUMO-RNF20 residues 321–900 with MBP-RNF40 residues 327–926) (human, UniProt Q5VTR2 321-900; O75150 327-926)
T1 construct: RNF20, human, residues 321-900; RNF40, human, residues 327-926; heterodimer; also called RNF20/RNF40; WT; source: E. coli BL21 Rosetta (DE3), purified from the mixed cell extract (strep-tactin, dextrin, gel filtration); copies: 1 + 1
T1 sequence (Q5VTR2 321-900, chain 1 of 2): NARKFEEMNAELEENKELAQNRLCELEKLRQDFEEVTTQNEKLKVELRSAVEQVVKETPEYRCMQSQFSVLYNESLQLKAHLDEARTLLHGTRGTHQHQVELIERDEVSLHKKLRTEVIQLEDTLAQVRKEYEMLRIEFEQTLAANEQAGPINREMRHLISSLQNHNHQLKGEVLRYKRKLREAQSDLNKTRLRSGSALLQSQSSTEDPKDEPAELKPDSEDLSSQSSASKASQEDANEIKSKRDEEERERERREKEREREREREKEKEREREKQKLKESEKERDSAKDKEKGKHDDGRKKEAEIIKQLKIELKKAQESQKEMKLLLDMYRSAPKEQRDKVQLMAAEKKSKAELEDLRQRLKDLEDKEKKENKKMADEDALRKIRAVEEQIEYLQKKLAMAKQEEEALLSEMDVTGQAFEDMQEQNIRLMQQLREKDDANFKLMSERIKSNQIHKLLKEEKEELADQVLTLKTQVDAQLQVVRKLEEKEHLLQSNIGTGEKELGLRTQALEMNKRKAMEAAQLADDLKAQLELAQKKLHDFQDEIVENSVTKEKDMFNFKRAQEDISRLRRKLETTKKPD
T1 sequence (O75150 327-926, chain 2 of 2): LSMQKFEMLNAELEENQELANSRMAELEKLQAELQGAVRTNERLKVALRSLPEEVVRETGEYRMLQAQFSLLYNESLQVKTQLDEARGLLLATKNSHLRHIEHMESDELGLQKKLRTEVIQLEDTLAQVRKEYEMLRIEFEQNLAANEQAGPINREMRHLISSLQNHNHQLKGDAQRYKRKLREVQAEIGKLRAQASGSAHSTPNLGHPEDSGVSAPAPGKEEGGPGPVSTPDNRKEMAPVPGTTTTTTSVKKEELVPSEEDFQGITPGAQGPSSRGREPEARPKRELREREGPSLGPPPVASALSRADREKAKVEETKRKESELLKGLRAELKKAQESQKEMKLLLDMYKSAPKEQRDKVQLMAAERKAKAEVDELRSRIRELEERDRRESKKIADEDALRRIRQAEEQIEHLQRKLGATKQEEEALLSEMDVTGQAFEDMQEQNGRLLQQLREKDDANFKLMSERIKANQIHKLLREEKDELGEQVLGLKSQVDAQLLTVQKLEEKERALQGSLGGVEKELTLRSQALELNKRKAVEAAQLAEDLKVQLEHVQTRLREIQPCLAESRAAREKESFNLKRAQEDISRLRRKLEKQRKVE
Test: SPR; RNF-MD immobilised on a CM5 chip, intein-WAC flown over; Biacore 8K, 25°C, 20 mM HEPES (pH 7.5), 200 mM sodium chloride, 0.02% Tween 20
Conditions: both partners purified
Listing of entries alongside the reported koff.
Respond numerically; units are s⁻¹ and should not be typed.

intein-CBD-tagged WAC-CT (WAC residues 570–647) (domain or fragment, human, UniProt Q9BTA9 570-647, looked up, WAC, human, residues 570-647; purified on Ni-NTA although no histidine tag is named; also called intein-WAC; WT; source: purified (Ni-NTA, heparin, gel filtration)) HVQGWPADHAEKQASRLREEAHNMGTIHMSEICTELKNLRSLVRVCEIQATLREQRILFLRQQIKELEKLKNQNSFMV	0.0234
intein-WAC S5 (E635K/E637K/K640E) (domain or fragment, human, UniProt Q9BTA9 570-647, looked up, WAC, human, residues 570-647; source: purified (Ni-NTA, heparin, gel filtration)) HVQGWPADHAEKQASRLREEAHNMGTIHMSEICTELKNLRSLVRVCEIQATLREQRILFLRQQIKKLKKLENQNSFMV	0.0143
intein-WAC S1 (D577K/E580K/R587E) (domain or fragment, human, UniProt Q9BTA9 570-647, looked up, WAC, human, residues 570-647; source: purified (Ni-NTA, heparin, gel filtration)) HVQGWPAKHAKKQASRLEEEAHNMGTIHMSEICTELKNLRSLVRVCEIQATLREQRILFLRQQIKELEKLKNQNSFMV	0.0165

Then there is this binder:
Query intein-WAC S4 (R630E) (domain or fragment, human, UniProt Q9BTA9 570-647, looked up, WAC, human, residues 570-647; source: purified (Ni-NTA, heparin, gel filtration)) HVQGWPADHAEKQASRLREEAHNMGTIHMSEICTELKNLRSLVRVCEIQATLREQRILFLEQQIKELEKLKNQNSFMV yields koff of 0.0138

Where these numbers come from: paper PMC12802937
